Reported IC50 by item:
- Experimental System: UniProt Q02127
- Sequence (Q02127 whole entry, the tested form may be a part): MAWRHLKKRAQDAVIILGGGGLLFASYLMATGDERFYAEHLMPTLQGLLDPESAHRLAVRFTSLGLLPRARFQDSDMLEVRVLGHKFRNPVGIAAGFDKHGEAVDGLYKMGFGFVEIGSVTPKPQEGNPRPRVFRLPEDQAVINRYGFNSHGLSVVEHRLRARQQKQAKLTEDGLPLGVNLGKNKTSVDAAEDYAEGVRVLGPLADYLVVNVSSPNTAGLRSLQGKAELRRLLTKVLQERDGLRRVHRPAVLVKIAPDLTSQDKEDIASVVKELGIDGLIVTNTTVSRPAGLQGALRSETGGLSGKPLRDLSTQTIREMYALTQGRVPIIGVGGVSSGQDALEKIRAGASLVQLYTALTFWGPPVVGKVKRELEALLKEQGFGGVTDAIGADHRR
- Procedure Details: Inhibition of C-terminal His6-tagged recombinant human DHODH (29 to 395 residues) N-terminally truncated soluble domain extracted from Escherichia coli phage resistant BL21-DE3 using CoQD/DHA/DCIP as substrates

Observe how each entry below is paired with its result.
1) CCn1cc(C2CC2)c2c([C@H](O)c3ccc(C(F)(F)F)nc3)n(C)nc2c1=O = > 100 µM
2) Cn1nc2c(=O)n(C3CC3)ccc2c1[C@](O)(c1cnc(C(F)(F)F)c(Cl)c1)C(F)(F)F = > 30 µM

INPUT: Given the molecule Cn1nc2c(=O)n(C3CC3)ccc2c1[C@](O)(c1cnc(C(F)(F)F)c(Cl)c1)C1CC1 , write its reported IC50.
OUTPUT: > 30 µM

* * *

Reported intrinsic clearance (CLint) by item:
- Procedure Details: Metabolic stability in human liver microsomes assessed as intrinsic clearance at 0.5 uM incubated for 60 mins in presence of NADPH by tandem quadrupole-Time of Flight MS
- Format: ADME, Microsome
- Condition Summary: 1 h

1) CC[C@@](N)(c1ccc(C(F)(F)F)c(Cl)c1)c1c2ncn(C3CC3)c(=O)c2nn1C = < 3 µL/min/mg
2) Cn1nc2c(=O)n(C3CC3)cnc2c1[C@](O)(c1ccc(C(F)(F)F)c(Cl)c1)C(F)(F)F = < 3 µL/min/mg

As a next step, examine the compound that follows.
INPUT: Given the compound Cn1nc2c(=O)n(C3CC3)ccc2c1Cc1ccc(C(F)(F)F)c(C#N)c1 , write its reported intrinsic clearance (CLint).
OUTPUT: < 7 µL/min/mg

* * *

- Experimental System: Dihydroorotate dehydrogenase (quinone), mitochondrial (Plasmodium falciparum (isolate 3D7), UniProt Q08210)
- Sequence (Q08210 whole entry, the tested form may be a part): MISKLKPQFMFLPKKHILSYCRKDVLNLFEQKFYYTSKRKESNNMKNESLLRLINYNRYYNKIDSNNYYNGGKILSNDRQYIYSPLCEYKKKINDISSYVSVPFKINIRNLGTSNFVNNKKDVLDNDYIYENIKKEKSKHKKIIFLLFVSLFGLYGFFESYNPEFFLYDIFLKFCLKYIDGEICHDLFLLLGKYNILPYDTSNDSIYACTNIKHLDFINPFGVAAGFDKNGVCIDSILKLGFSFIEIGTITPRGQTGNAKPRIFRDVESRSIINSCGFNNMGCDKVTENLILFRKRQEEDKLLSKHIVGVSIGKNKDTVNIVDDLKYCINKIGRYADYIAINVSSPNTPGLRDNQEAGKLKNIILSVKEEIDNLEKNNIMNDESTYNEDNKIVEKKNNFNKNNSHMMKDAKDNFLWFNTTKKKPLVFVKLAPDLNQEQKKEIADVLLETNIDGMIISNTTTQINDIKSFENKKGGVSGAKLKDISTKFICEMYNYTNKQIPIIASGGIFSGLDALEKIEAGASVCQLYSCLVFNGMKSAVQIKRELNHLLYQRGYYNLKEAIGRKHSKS
- Procedure Details: Inhibition of N-terminal His6-tagged recombinant Plasmodium falciparum DHODH (158 to 569 residues) N-terminally truncated soluble domain extracted from Escherichia coli phage resistant BL21-DE3 using CoQD/DHA/DCIP as substrates
pIC50: −log10 of the molar value.
Answer FALSE if pIC50 is under 7, and TRUE if it is 7 or more.

Worked cases, answers included:
1) Cn1nc2c(=O)n(C3CC3)cnc2c1[C@](O)(c1cnc(C(F)(F)F)c(Cl)c1)C(F)(F)F = TRUE
2) CC[C@@](O)(c1ccc(F)c(Cl)c1)c1c2ccn(C3CC3)c(=O)c2nn1C = TRUE
3) Cn1nc2c(=O)n(C3CC3)cc(C3CC3)c2c1Cc1ccc(C(F)(F)F)nc1 = TRUE

INPUT: Could you please find out whether CCn1cc(C2CC2)c2c([C@H](N)c3ccc(C(F)(F)F)nc3)n(C)nc2c1=O has pIC50 that meets 7 or exceeds it?
OUTPUT: FALSE

INPUT: Could you please find out whether CC[C@@](O)(c1ccc(C(F)(F)F)c(Cl)c1)c1c2cnn(C3CC3)c(=O)c2nn1C has pIC50 that meets 7 or exceeds it?
OUTPUT: TRUE

INPUT: Could you please find out whether CCn1cc(Cl)c2c(Cc3ccc(N4CCCCC4)nc3)n(C)nc2c1=O has pIC50 that meets 7 or exceeds it?
OUTPUT: TRUE

INPUT: Could you please find out whether CCOC(=O)c1nn(C)c(Cc2ccc(C(F)(F)F)nc2)c1C has pIC50 that meets 7 or exceeds it?
OUTPUT: FALSE
